Quick reference: pKd of the listed items.
biological target: T1, monomeric recombinant cynomologus monkey Notch3 extracellular domain (containing EGF like domains 1-12) … (cynomologus monkey); assay: SPR BIAcore T100, antibody captured by anti-human IgG Fc, monomeric rcNotch3 analyte, 37 C
T1 construct: domain: EGF like domains 1-12; also called monomeric rcNotch3
Schema: pKd number; meaning minus log10 of the concentration expressed in molar units.

binder	measured_property	measured_number
Hu4F11-76 (antibody, human IgG1, kappa, V domains shown, Humanized, human IgG1 kappa; Hv3-23 S31H T62S heavy + Kv2D-29 N28Y kappa) VH: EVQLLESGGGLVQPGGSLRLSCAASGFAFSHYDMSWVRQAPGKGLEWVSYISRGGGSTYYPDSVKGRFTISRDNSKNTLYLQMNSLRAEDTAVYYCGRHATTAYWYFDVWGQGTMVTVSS VL: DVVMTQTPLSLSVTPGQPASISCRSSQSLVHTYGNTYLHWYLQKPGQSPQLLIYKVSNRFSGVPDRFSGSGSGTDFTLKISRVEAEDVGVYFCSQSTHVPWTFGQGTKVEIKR	pKd	7.92

Any idea what pKd was measured for Hu4F11-79 (antibody, human IgG1, kappa, V domains shown, Humanized, human IgG1 kappa; Hv3-23 A28T T62S heavy + Kv2D-29 N28Q kappa) VH: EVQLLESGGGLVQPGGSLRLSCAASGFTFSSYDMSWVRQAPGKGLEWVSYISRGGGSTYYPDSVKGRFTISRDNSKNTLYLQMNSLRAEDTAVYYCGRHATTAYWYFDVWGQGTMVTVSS VL: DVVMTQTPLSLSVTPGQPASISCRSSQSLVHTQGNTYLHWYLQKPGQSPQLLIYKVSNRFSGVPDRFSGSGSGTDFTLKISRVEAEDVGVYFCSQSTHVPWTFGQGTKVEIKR ?
7.64

Any idea what its pKd is? The binder is Hu4F11-74 (antibody, human IgG1, kappa, V domains shown, Humanized, human IgG1 kappa; Hv3-23 A28T S31H T62S heavy + Kv2D-29 N28Y kappa) VH: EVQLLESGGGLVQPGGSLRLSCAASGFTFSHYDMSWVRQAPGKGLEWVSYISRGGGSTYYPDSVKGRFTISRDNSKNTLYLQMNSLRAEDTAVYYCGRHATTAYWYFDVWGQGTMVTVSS VL: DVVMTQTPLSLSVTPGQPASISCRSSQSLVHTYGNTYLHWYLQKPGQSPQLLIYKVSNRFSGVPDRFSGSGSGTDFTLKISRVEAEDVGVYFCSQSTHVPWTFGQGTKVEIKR
7.92

Name the recorded pKd for Hu4F11-71 (antibody, human IgG1, kappa, V domains shown, Humanized, human IgG1 kappa; Hv3-23 A28T T62S heavy + Kv2D-29 N28H kappa) VH: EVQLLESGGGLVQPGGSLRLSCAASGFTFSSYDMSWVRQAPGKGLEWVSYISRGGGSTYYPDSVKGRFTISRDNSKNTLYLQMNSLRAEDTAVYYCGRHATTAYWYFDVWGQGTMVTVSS VL: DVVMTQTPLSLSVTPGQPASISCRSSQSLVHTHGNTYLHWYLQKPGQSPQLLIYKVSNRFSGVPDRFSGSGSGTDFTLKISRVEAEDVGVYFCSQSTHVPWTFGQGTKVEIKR .
7.85

Find the recorded pKd belonging to Hu4F11-77 (antibody, human IgG1, kappa, V domains shown, Humanized, human IgG1 kappa; Hv3-23 A28T S31N T62S heavy + Kv2D-29 N28Q kappa) VH: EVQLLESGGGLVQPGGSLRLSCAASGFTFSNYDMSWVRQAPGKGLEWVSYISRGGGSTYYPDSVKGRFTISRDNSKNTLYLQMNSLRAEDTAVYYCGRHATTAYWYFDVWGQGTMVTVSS VL: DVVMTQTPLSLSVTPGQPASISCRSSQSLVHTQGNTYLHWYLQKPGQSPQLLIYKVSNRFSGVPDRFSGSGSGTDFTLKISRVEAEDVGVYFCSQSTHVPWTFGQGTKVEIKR and report it.
7.92
